The entries below come with measured melting point values attached.

molecule="O=C1[C@H](CCCc2ccc(F)cc2)[C@@H](c2ccc(OCC3O[C@H](CO)[C@@H](O)[C@H](O)[C@H]3O)cc2)N1Cc1ccccc1 (relative stereo) [Compound 16]" result="73 to 75 °C"
molecule="COc1ccc(N2C(=O)[C@H](CCCc3ccc(F)cc3)[C@H]2c2ccc(CC3O[C@H](CO)[C@@H](O)[C@H](O)[C@H]3O)cc2)cc1 (relative stereo) [Compound 5]" result="73 to 75 °C"
molecule="CC(=O)OC[C@H]1O[C@@H](Cc2ccc([C@@H]3[C@@H](CCCc4ccc(F)cc4)C(=O)N3c3ccc(F)cc3)cc2)[C@H](OC(C)=O)[C@@H](OC(C)=O)[C@@H]1OC(C)=O (relative stereo) [Compound 3]" result="56 to 58 °C"
molecule="Cc1ccc(N2C(=O)[C@H](CCCc3ccc(F)cc3)[C@H]2c2ccc(CC3O[C@H](CO)[C@@H](O)[C@H](O)[C@H]3O)cc2)cc1 (relative stereo) [Compound 7]" result="80 to 82 °C"
molecule="O=C1[C@H](CC[C@H](O)c2ccc(F)cc2)[C@@H](c2ccc(CC[C@@H]3O[C@H](CO)[C@@H](O)[C@H](O)[C@H]3O)cc2)N1c1ccccc1 [Compound 56]" result="82 to 84 °C"
molecule="O=C(O)c1ccc(N2C(=O)[C@H](CC[C@H](O)c3ccc(F)cc3)[C@H]2c2ccc(C[C@@H]3O[C@H](CO)[C@@H](O)[C@H](O)[C@H]3O)cc2)cc1 [Compound 29]" result="148 to 150 °C"
molecule="O=C1[C@H](CCCc2ccc(F)cc2)[C@@H](c2ccc(C[C@@H]3O[C@H](CO)[C@@H](O)[C@H](O)[C@H]3O)cc2)N1c1ccc(Cl)cc1 (relative stereo) [Compound 4]" result="76 to 78 °C"
molecule="CC(C)(Oc1ccc(N2C(=O)[C@H](CCCc3ccc(F)cc3)[C@H]2c2ccc(C[C@@H]3O[C@H](CO)[C@@H](O)[C@H](O)[C@H]3O)cc2)cc1)C(=O)O (relative stereo) [Compound 19]" result="170 to 172 °C"
molecule="O=C1[C@H](CCOc2ccc(F)cc2)[C@@H](c2ccc(OCC3O[C@H](CO)[C@@H](O)[C@H](O)[C@H]3O)cc2)N1c1ccc(F)cc1 (relative stereo) [Compound 15]" result="64 to 65 °C"
molecule="O=C1[C@H](CCCc2ccc(F)cc2)[C@@H](c2ccc(OCC3O[C@H](CO)[C@@H](O)[C@H](O)[C@H]3O)cc2)N1c1ccc(F)cc1 (relative stereo) [Compound 14]" result="61 to 62 °C"

### Prompt Return value of melting point for input COc1ccc(N2C(=O)[C@H](CCCc3ccc(F)cc3)[C@H]2c2ccc(C[C@@H]3O[C@H](COC(C)=O)[C@@H](OC(C)=O)[C@H](OC(C)=O)[C@H]3OC(C)=O)cc2)cc1 (relative stereo) [Compound 6] , no commentary.
### Response 60 to 62 °C

### Prompt Answer with reported melting point of O=C1[C@H](CCCc2ccccc2)[C@@H](c2ccc(CC3O[C@H](CO)[C@@H](O)[C@H](O)[C@H]3O)cc2)N1c1ccc(F)cc1 (relative stereo) [Compound 11]
### Response 74 to 75 °C
